- assay name: Inhibition of amyloid beta (1 to 40) monomer aggregation assessed as lag time extension by thioflavin T based fluorometric assay relative to control
endpoint: fold change (FC)

{"structure smiles string": "O=c1cc(-n2cc(-c3ccccc3)nn2)c2ccccc2o1", "fold change (FC)": 1.4}
{"structure smiles string": "CCN(CC)c1ccc2c(C#N)c(-c3nc4ccccc4s3)c(=O)oc2c1", "fold change (FC)": 1.1}
{"structure smiles string": "CCN(CC)c1ccc2c(-c3nnn[nH]3)c(-c3nc4ccccc4s3)c(=O)oc2c1", "fold change (FC)": 1}
{"structure smiles string": "CCN(CC)c1ccc2cc(-c3nc4ccccc4s3)c(=O)oc2c1", "fold change (FC)": 1.3}

A: O=c1oc2ccccc2cc1-n1cc(-c2cccc3ccccc23)nn1
B: O=c1oc2ccccc2cc1-c1nn[nH]n1
Asked: Kindly identify which of A and B has the larger recorded fold change (FC) value. Response format: the label of the selected entry.
Given back: A
